# credit: patent US9796753B2

- Tested on: breast MDA-MB-435
- protocol_details: COMPARE screening (NCI human cancer cell line screen), cytotoxicity GI50
- Assay type: cell-based
This listing pairs compounds with measured GI50.

Known results for compounds:
| compound | quantity_kind | observed_value |
| --- | --- | --- |
| CC(C)(C)OC(=O)NCCCCCCCCn1c2c(c3ccccc3c1=O)C(=O)c1ccccc1-2 [Compound 5ag] | GI50 | > 50100 nM |
| COc1ccc2c(c1)C(=O)c1c-2n(CCCn2ccnc2)c(=O)c2cc([N+](=O)[O-])ccc12 [Compound 5br] | GI50 | < 10 nM |

Task item: Name the recorded GI50 for COc1ccc2c(c1)C(=O)c1c-2n(CCCNCCO)c(=O)c2cc([N+](=O)[O-])ccc12.Cl [Compound 5bm] .
Reply: < 10 nM
